Cited source for all entries: the supplement of paper PMC5908809

Test system: normal primary NK cells, pool 3 (3 donors) (IL-2 2.5 ng/mL)
ASSAY: percent inhibition of viability; higher = more inhibition;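 further: normalised to DMSO-only wells as negative and benzethonium chloride as positive control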
CONDITION: 72 h; 10000 nM
percent inhibition of viability listing for selected compounds.

COMPOUND	percent inhibition of viability, %
CCC1=C[C@@H]2CN(C1)Cc1c([nH]c3ccccc13)[C@@](C(=O)OC)(c1cc3c(cc1OC)N(C)[C@H]1[C@@](O)(C(=O)OC)[C@H](OC(C)=O)[C@]4(CC)C=CCN5CC[C@]31[C@@H]54)C2 [Vinorelbine] (max concentration tested 10000 nM)	32.1
COc1cc(N2CCN(C)CC2)ccc1Nc1nccc(-c2cn(C)c3cnccc23)n1 [AZ191] (max concentration tested 10000 nM)	97.8
Cn1cncc1[C@@](N)(c1ccc(Cl)cc1)c1ccc2c(c1)c(-c1cccc(Cl)c1)cc(=O)n2C [Tipifarnib] (max concentration tested 10000 nM)	53.4
Cc1nc(Nc2n[nH]c3c2CN(C(=O)N[C@H](CN(C)C)c2ccccc2)C3(C)C)c2sccc2n1 (max concentration tested 10000 nM)	98.9
Cc1ncc(-c2ccnc(Nc3ccc(S(C)(=O)=O)cc3)n2)n1C(C)C [AZD-5438] (max concentration tested 10000 nM)	99.4
Cc1nc(C(=O)NCC(=O)O)c(O)c2ccc(Oc3ccccc3)cc12 [FG-4592] (max concentration tested 10000 nM)	5.24

====

Test system: KAI3 (IL-2 2.5 ng/mL)
ASSAY: percent inhibition of viability; higher = more inhibition
CONDITION: 72 h; 0.1 nM
Recorded percent inhibition of viability, one value per entry.

MOLECULE	UNIT_LABEL	percent inhibition of viability
O=C1c2c(O)ccc(O)c2C(=O)c2c(NCCNCCO)ccc(NCCNCCO)c21 [Mitoxantrone] (max concentration tested 1000 nM)	%	-18.6
COc1cc2nccc(Oc3ccc(NC(=O)C4(C(=O)Nc5ccc(F)cc5)CC4)cc3)c2cc1OC [Cabozantinib] (max concentration tested 1000 nM)	%	-1.21
CCC/C=C/C=C/C(=O)O[C@H]1/C(=C/C(=O)OC)C[C@H]2C[C@H]([C@@H](C)O)OC(=O)C[C@H](O)C[C@@H]3C[C@H](OC(C)=O)C(C)(C)[C@](O)(C[C@@H]4C/C(=C/C(=O)OC)C[C@H](/C=C/C(C)(C)[C@]1(O)O2)O4)O3 [Bryostatin 1] (max concentration tested 100 nM)	%	5.23
CNC(=O)c1ccc(C)c(-n2c(C)cc(OCc3ccc(F)cc3F)c(Br)c2=O)c1 (max concentration tested 1000 nM)	%	-0.38
CC[C@@H]1C(=O)N(C)c2cnc(Nc3ccc(C(=O)N[C@H]4CC[C@H](N5CCN(CC6CC6)CC5)CC4)cc3OC)nc2N1C(C)C [Volasertib] (max concentration tested 1000 nM)	%	2.62

====

Test system: NKL (IL-2 2.5 ng/mL)
ASSAY: percent inhibition of viability; higher = more inhibition
CONDITION: 72 h; 10000 nM
REPORTED_ENDPOINT: percent inhibition of viability (%)

MOLECULE	REPORTED_ENDPOINT	UNIT_LABEL	READING
CC(C)N(CCCNC(=O)Nc1ccc(C(C)(C)C)cc1)C[C@H]1O[C@@H](n2cc(Br)c3c(N)ncnc32)[C@H](O)[C@@H]1O [SGC0946] (max concentration tested 10000 nM)	percent inhibition of viability	%	33.7
C#Cc1cccc(Nc2ncnc3cc(OCCOC)c(OCCOC)cc23)c1 [Erlotinib] (max concentration tested 10000 nM)	percent inhibition of viability	%	38.5
Oc1c2ccccc2c2c3c(cccc13)N=N2 (max concentration tested 100000 nM)	percent inhibition of viability	%	43.4
